Molecular target: T1, human CLDN9 (UniProt O95484 1-217)
T1 chain: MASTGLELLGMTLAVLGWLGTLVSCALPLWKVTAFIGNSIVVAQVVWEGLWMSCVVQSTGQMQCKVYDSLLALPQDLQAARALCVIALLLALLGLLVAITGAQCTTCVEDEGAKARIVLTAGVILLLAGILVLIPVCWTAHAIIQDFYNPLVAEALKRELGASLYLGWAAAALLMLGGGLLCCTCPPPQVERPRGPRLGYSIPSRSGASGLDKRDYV
Experiment: HEK293E cell binding; avid
measured-parameter: EC50 (µg/mL)
One number for each entry, in µg/mL.

[[record]]
binder = "XENP35096 H2.3_L1 (antibody, V domains shown) VH: EVQLVQSGAEVKKPGESLRISCKTSGYTFTEYTMHWVRQMPGKSLEWMGGIDSNNGNTHYNQKFQGHVTISVDKSISTAYLQWSSLKASDTAMYYCARIYYFGRLYFDFWGAGTLVTVSS VL: DIQMTQSPSSLSASVGDRVTITCQASEDIYNRLAWYQQKPGKVPKLLISGATSLETGVPSRFSGSGSGKDYTFTISSLQPEDIATYYCQQYWSSPLTFGGGTKVEIKR"
quantitative_result = 110

[[record]]
binder = "XENP35090 H1.6_L1 (antibody, V domains shown) VH: QVQLVQSGAEVKKPGASVKVSCKTSGYTFTEYTMHWVRQAPGQSLEWMGGIDPNSGNTHYNQKFQGRVTITVDKSASTAYMELSSLRSEDTAVYYCARIYYFGRLYFDFWGAGTLVTVSS VL: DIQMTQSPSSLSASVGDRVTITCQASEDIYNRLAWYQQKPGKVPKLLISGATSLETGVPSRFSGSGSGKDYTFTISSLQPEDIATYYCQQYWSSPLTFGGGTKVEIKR"
quantitative_result = 44.6

[[record]]
binder = "XENP35050 H2_L1.7 (antibody, V domains shown) VH: EVQLVQSGAEVKKPGESLRISCKTSGYTFTEYTMHWVRQMPGKSLEWMGGIDPNNGNTHYNQKFQGHVTISVDKSISTAYLQWSSLKASDTAMYYCARIYYFGRLYFDFWGAGTLVTVSS VL: DIQMTQSPSSLSASVGDRVTITCQASEDIYSRLAWYQQKPGKVPKLLISGATSLETGVPSRFSGSGSGKDYTFTISSLQPEDIATYYCQQYWSSPLTFGGGTKVEIKR"
quantitative_result = 99.3


# lookup: EC50 of XENP35102 having H2.9_L1 (antibody, V domains shown) VH: EVQLVQSGAEVKKPGESLRISCKTSGYTFTEYTMHWVRQMPGKSLEWMGGIDPNNANTHYNQKFQGHVTISVDKSISTAYLQWSSLKASDTAMYYCARIYYFGRLYFDFWGAGTLVTVSS VL: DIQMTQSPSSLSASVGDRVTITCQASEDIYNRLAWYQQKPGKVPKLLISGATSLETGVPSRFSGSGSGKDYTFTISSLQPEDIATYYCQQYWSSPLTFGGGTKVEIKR
1.43
